Exercise: state measured pIC50 for each of the compounds provided.
Test system: MCF7
Procedure Text: Cytotoxicity against human MCF7 cells after 72 hrs by MTT assay
Format: functional, cell-based
Run Conditions: MCF7, 72 h
Numbers only, as −log10 of the molar value.

The following compounds have reported results that may help.
CC[C@@]1(O)C(=O)OCc2c1cc1n(c2=O)Cc2cc3cc(OC(=O)OCCOCCOCCOCCOCCOCCOCCOCCOCCOCCOCCOCCOCCOCCOCCOCCOCCOCCOCCOCCOCCOCCOCCOCCOC)ccc3nc2-1 = 5.17
CC[C@@]1(OC(=O)OCCOCCOCCOCCOCCOCCOCCOCCOCCOCCOCCOCCOCCOCCOCCOC)C(=O)OCc2c1cc1n(c2=O)Cc2cc3ccccc3nc2-1 = 5.07

Dear colleague, could you send me pIC50 for each of the items below? Thanks.
1. CC[C@@]1(O)C(=O)OCc2c1cc1n(c2=O)Cc2cc3cc(OC(=O)OCCOCCOCCOCCOCCOCCOCCOCCOCCOCCOCCOCCOCCOCCOCCOCCOCCOCCOCCOCCOC)ccc3nc2-1
2. CC[C@@]1(OC(=O)OCCOCCOCCOCCOCCOCCOCCOCCOC)C(=O)OCc2c1cc1n(c2=O)Cc2cc3ccccc3nc2-1
3. CC[C@@]1(OC(=O)OCCOCCOCCOCCOCCOCCOCCOCCOCCOCCOCCOCCOCCOCCOCCOCCOCCOCCOCCOCCOCCOCCOCCOCCOC)C(=O)OCc2c1cc1n(c2=O)Cc2cc3ccccc3nc2-1
4. CC[C@@]1(OC(=O)OCCOCCOCCOCCOCCOCCOCCOCCOCCOCCOCCOCCOCCOCCOC)C(=O)OCc2c1cc1n(c2=O)Cc2cc3ccccc3nc2-1

Result:
1. 5.16
2. 5.13
3. 5.06
4. 5.13

====

Procedure Text: Solubility of the compound in phosphate buffered saline by UV-spectroscopic analysis
Format: physicochemical
Run Conditions: phosphate buffered saline; read-out: solubility
Measured Attribute: solubility (mg/mL)
Numbers only, in mg/mL.

Field: example entries. Status: answers known.
CC[C@@]1(OC(=O)OCCOCCOCCOCCOCCOCCOCCOCCOCCOCCOCCOCCOCCOCCOCCOC)C(=O)OCc2c1cc1n(c2=O)Cc2cc3ccccc3nc2-1 = 114
CC[C@@]1(O)C(=O)OCc2c1cc1n(c2=O)Cc2cc3cc(OCCOCCOCCOCCO)ccc3nc2-1 = 0.95
CC[C@@]1(O)C(=O)OCc2c1cc1n(c2=O)Cc2cc3cc(OC(=O)OCCOCCOCCOCCOCCOCCOCCOCCOCCOCCOC)ccc3nc2-1 = 142
CC[C@@]1(OC(=O)OCCOCCOCCOCCOCCOCCOCCOCCOCCOCCOCCOC)C(=O)OCc2c1cc1n(c2=O)Cc2cc3ccccc3nc2-1 = 79.5
CC[C@@]1(O)C(=O)OCc2c1cc1n(c2=O)Cc2cc3cc(OCCOCCOCCOCCOCCOCCOCCO)ccc3nc2-1 = 73.3

State the recorded solubility for every item in the following list.
1. CC[C@@]1(O)C(=O)OCc2c1cc1n(c2=O)Cc2cc3ccccc3nc2-1
2. CC[C@@]1(O)C(=O)OCc2c1cc1n(c2=O)Cc2cc3cc(OCCOCCOCCOCCOCCOCCOCCOCCO)ccc3nc2-1

Result:
0.00069
249

====

System: HepG2
Procedure Text: Cytotoxicity against human HepG2 cells after 72 hrs by MTT assay
Type: functional, cell-based
Run Conditions: HepG2, 72 h
true (1) if IC50 is below 4 µM. false (0) if not; exact matches included in false (0).

Solved cases below.
CC[C@@]1(O)C(=O)OCc2c1cc1n(c2=O)Cc2cc3cc(OC(=O)OCCOCCOCCOCCOCCOCCOCCOCCOCCOCCOCCOCCOCCOCCOCCOCCOCCOCCOCCOCCOCCOCCOCCOCCOC)ccc3nc2-1 = true (1)
CC[C@@]1(O)C(=O)OCc2c1cc1n(c2=O)Cc2cc3cc(OC(=O)OCCOCCOCCOCCOCCOCCOCCOCCOCCOCCOCCOCCOCCOCCOCCOC)ccc3nc2-1 = true (1)
CCc1c2c(nc3ccc(OC(=O)OCCOCCOCCOCCOCCOCCOCCOCCOCCOCCOCCOCCOCCOCCOCCOCCOCCOCCOCCOCCOC)cc13)-c1cc3c(c(=O)n1C2)COC(=O)[C@]3(O)CC = true (1)
CC[C@@]1(OC(=O)OCCOCCOCCOCCOCCOCCOCCOCCOCCOCCOCCOCCOC)C(=O)OCc2c1cc1n(c2=O)Cc2cc3ccccc3nc2-1 = false (0)
CC[C@@]1(O)C(=O)OCc2c1cc1n(c2=O)Cc2cc3cc(OCCOCCOCCOCCOCCOCCOCCOCCOCCOCCOCCO)ccc3nc2-1 = false (0)
CC[C@@]1(OC(=O)OCCOCCOCCOCCOCCOCCOCCOCCOCCOCCOCCOCCOCCOCCOCCOCCOCCOCCOCCOCCOCCOCCOCCOCCOC)C(=O)OCc2c1cc1n(c2=O)Cc2cc3ccccc3nc2-1 = false (0)
CC[C@@]1(O)C(=O)OCc2c1cc1n(c2=O)Cc2cc3cc(OCCOCCOCCOCCOCCOCCOCCO)ccc3nc2-1 = false (0)
CC[C@@]1(OC(=O)OCCOCCOCCOCCOCCOCCOCCOCCOC)C(=O)OCc2c1cc1n(c2=O)Cc2cc3ccccc3nc2-1 = false (0)

Problem: Determine whether this compound shows IC50 lower than 4 µM (ties excluded): "CC[C@@]1(OC(=O)OCCOCCOCCOCCOCCOCCOCCOCCOCCOCCOCCOCCOCCOCCOCCOCCOCCOCCOCCOC)C(=O)OCc2c1cc1n(c2=O)Cc2cc3ccccc3nc2-1"
Result: true (1)

Problem: Take the compound "CC[C@@]1(O)C(=O)OCc2c1cc1n(c2=O)Cc2cc3cc(OC(=O)OCCOCCOCCOCCOCCOCCOCCOCCOCCOCCOCCOCCOCCOCCOCCOCCOC)ccc3nc2-1" and say whether its IC50 is less than 4 µM.
Result: true (1)

Problem: # check: IC50 < 4 µM for "CC[C@@]1(O)C(=O)OCc2c1cc1n(c2=O)Cc2cc3cc(OCCOCCOCCOCCOCCOCCOCCOCCOCCO)ccc3nc2-1"
Result: false (0)

Problem: Lab note: confirm whether the reported IC50 for this compound is below 4 µM, equality not counting. compound: "CC[C@@]1(O)C(=O)OCc2c1cc1n(c2=O)Cc2cc3cc(OCCOCCOCCOCCOCCOCCOCCOCCOCCOCCOCCOCCO)ccc3nc2-1"
Result: false (0)

====

Tested on: HepG2
Procedure Text: Cytotoxicity against human HepG2 cells after 72 hrs by MTT assay
Format: functional, cell-based
Run Conditions: HepG2, 72 h
Measured Attribute: pIC50
Give bare numbers, as −log10 of the molar value.

Illustrative cases are given below, each with its answer.
CC[C@@]1(O)C(=O)OCc2c1cc1n(c2=O)Cc2cc3cc(OCCOCCOCCOCCOCCO)ccc3nc2-1 = 4.15
CC[C@@]1(OC(=O)OCCOCCOCCOCCOCCOCCOCCOCCOCCOCCOCCOCCOCCOCCOCCOCCOC)C(=O)OCc2c1cc1n(c2=O)Cc2cc3ccccc3nc2-1 = 5.33
CC[C@@]1(O)C(=O)OCc2c1cc1n(c2=O)Cc2cc3cc(OC(=O)OCCOCCOCCOCCOCCOCCOCCOCCOC)ccc3nc2-1 = 5.51

// batch mode: one pIC50 value per listed entry
1. CC[C@@]1(O)C(=O)OCc2c1cc1n(c2=O)Cc2cc3cc(OCCOCCOCCOCCO)ccc3nc2-1
2. CCc1c2c(nc3ccc(O)cc13)-c1cc3c(c(=O)n1C2)COC(=O)[C@]3(O)CC [7-ETHYL-10-HYDROXYCAMPTOTHECIN]
3. CC[C@@]1(O)C(=O)OCc2c1cc1n(c2=O)Cc2cc3cc(OC(=O)OCCOCCOCCOCCOCCOCCOCCOCCOCCOCCOC)ccc3nc2-1

Result:
1: 4.38; 2: 6.32; 3: 5.68

====

Test system: HepG2
Procedure Text: Cytotoxicity against human HepG2 cells after 72 hrs by MTT assay
Format: functional, cell-based
Run Conditions: HepG2, 72 h
pIC50: −log10 of the molar value.
# label = True if pIC50 >= 5 else False

Past entries and their recorded results:
CC[C@@]1(OC(=O)OCCOCCOCCOCCOCCOCCOCCOCCOCCOCCOCCOC)C(=O)OCc2c1cc1n(c2=O)Cc2cc3ccccc3nc2-1 = True
CC[C@@]1(O)C(=O)OCc2c1cc1n(c2=O)Cc2cc3cc(OC(=O)OCCOCCOCCOCCOCCOCCOCCOCCOCCOCCOCCOCCOCCOCCOC)ccc3nc2-1 = True
CC[C@@]1(O)C(=O)OCc2c1cc1n(c2=O)Cc2cc3cc(OCCOCCOCCOCCOCCOCCO)ccc3nc2-1 = False
CC[C@@]1(O)C(=O)OCc2c1cc1n(c2=O)Cc2cc3cc(OC(=O)OCCOCCOCCOCCOCCOCCOCCOCCOCCOCCOCCOCCOCCOCCOCCOCCOCCOCCOCCOCCOC)ccc3nc2-1 = True
CC[C@@]1(O)C(=O)OCc2c1cc1n(c2=O)Cc2cc3cc(OC(=O)OCCOCCOCCOCCOCCOCCOCCOCCOCCOCCOCCOCCOCCOCCOCCOCCOCCOCCOCCOC)ccc3nc2-1 = True
CC[C@@]1(OC(=O)OCCOCCOCCOCCOCCOCCOCCOCCOCCOCCOC)C(=O)OCc2c1cc1n(c2=O)Cc2cc3ccccc3nc2-1 = True
CC[C@@]1(OC(=O)OCCOCCOCCOCCOCCOCCOCCOCCOCCOCCOCCOCCOCCOCCOCCOC)C(=O)OCc2c1cc1n(c2=O)Cc2cc3ccccc3nc2-1 = True

Next compound, please.
Problem: Dear colleague, could you confirm whether "CC[C@@]1(O)C(=O)OCc2c1cc1n(c2=O)Cc2cc3cc(OCCOCCOCCOCCOCCOCCOCCOCCOCCOCCO)ccc3nc2-1" has pIC50 at or above 5?
Result: False
